All values here come from ChEMBL document CHEMBL3608232.

System Tested: Receptor-type tyrosine-protein phosphatase F (Homo sapiens, UniProt P10586)
Sequence (P10586 whole entry): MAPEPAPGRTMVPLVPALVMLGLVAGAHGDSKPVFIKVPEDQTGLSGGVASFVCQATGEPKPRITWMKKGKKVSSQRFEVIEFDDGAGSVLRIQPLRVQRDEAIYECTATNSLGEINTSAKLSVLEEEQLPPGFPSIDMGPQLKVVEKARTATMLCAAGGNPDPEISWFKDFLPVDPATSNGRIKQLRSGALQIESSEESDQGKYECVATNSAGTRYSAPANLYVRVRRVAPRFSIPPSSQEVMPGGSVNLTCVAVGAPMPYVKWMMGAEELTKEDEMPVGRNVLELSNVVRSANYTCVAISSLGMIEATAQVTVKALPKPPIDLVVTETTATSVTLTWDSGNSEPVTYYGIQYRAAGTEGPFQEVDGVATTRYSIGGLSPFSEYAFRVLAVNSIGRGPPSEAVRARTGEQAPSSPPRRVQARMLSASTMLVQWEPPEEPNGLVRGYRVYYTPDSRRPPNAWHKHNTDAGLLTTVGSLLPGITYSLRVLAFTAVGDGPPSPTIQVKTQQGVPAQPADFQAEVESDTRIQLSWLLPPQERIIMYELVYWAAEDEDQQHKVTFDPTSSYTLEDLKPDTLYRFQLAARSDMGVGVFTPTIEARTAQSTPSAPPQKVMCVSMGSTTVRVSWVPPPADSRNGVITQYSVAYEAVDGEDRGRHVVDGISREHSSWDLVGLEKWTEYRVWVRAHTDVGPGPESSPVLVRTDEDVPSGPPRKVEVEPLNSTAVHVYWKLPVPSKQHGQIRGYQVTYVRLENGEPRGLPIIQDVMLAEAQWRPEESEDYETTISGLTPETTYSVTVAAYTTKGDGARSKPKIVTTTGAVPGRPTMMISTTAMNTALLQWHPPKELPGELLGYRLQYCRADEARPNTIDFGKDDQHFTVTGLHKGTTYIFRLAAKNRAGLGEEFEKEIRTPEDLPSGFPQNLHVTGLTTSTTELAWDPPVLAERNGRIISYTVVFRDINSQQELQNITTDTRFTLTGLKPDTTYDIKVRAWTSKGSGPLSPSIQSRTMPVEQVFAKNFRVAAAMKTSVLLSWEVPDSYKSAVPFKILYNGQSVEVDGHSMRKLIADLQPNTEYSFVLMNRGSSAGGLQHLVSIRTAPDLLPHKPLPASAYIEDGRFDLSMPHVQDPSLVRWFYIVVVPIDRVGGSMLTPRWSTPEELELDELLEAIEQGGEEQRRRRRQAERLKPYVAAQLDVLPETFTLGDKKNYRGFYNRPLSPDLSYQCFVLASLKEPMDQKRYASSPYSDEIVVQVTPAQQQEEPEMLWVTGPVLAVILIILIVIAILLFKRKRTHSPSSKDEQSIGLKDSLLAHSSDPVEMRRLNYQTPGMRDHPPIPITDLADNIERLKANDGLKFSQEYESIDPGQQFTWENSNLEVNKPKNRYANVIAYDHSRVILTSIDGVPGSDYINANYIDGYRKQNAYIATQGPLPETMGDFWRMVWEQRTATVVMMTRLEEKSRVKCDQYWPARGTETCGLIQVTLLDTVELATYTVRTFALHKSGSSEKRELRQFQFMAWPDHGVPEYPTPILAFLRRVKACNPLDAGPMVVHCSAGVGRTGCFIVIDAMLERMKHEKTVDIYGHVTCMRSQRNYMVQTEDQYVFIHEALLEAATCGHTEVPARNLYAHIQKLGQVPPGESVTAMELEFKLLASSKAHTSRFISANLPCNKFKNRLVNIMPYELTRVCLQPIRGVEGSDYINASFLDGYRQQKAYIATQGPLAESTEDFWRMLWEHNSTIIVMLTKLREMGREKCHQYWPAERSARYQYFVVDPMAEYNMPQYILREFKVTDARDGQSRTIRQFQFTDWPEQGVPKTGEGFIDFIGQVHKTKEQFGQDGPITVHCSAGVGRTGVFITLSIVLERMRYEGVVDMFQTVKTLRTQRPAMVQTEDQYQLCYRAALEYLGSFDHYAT

Compound: O=C(Nc1ccc(NC(=O)C(c2ccccc2)S(=O)(=O)O)cc1)C(=O)Nc1ccc(-c2ccccc2)cc1 (stereo unspecified)
IC50: > 50 µM
